The measured values listed here are drawn from PubChem BioAssay (NCI).

Procedure Details: NCI Yeast Anticancer Drug Screen. Data for the sgs1 mgt1 strain (AID 161);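 note: 0% = growth of cultures given vehicle only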
Run Parameters: S. cerevisiae sgs1 mgt1 strain, active compounds read high; at 50.0 µM unless noted
Compounds without any hit were thinned out: in the full panel of roughly 79,000, 15% have a hit.
Measured Quantity: growth inhibition (%)
Give just the numeric value; % need not be written.

CCOC(=O)/C(=N/Nc1ccc(Cl)cc1)N1C(=S)C=C(C)NN(C)C1=S :: -22.1
CON1C(=O)C(c2ccccc2)c2ccccc21 (centres undefined) :: 47.8
CC(=Nc1cccc(Cl)c1)c1ccncc1 :: -24.6
CCSc1nc2n(c(=S)n1)CCN2C :: 13.8
[S-]c1n[n+](-c2ccccc2)cs1 :: 0.15
O=c1/c(=C/c2ccccc2[N+](=O)[O-])sc2nc3ccccc3n12 :: -25.9
O=C1NCC(CCl)O1 (centres undefined) :: -2.15
O=C(c1ccccc1)C1CC1C(=O)c1ccccc1 (centres undefined) :: -6.1
Cc1ccc(C(CC(=O)C(C)(C)CN2CCCCC2)SCCS(=O)(=O)O)cc1 (centres undefined) :: 11.1
COC1CN(C(C)(C)C)C1 :: -1.2

INPUT: Give the reported growth inhibition for this compound. c1ccc2c(c1)nnn2C1CCCCO1 (centres undefined)
OUTPUT: -19.5

INPUT: Consider the compound COC(=O)CCC(C)C1CCC2(C)C3=C(C(=O)CC12C)C1(C)CCC(O)C(C)(C)C1=C(O)C3 (centres undefined) . State its measured growth inhibition.
OUTPUT: 77.6

INPUT: Give me measured growth inhibition, please, for this compound: COc1ccc(C(=O)CCC(=O)O)c(O)c1
OUTPUT: -12.6

INPUT: Return growth inhibition (reported value) for this compound: O=C(Nc1cccc2ccccc12)c1ccc(Cl)cc1Cl
OUTPUT: 21.5

INPUT: Look up and report measured growth inhibition for this entry: C=C(COc1ccc(OC)cc1)C(C)(C)C
OUTPUT: -17.4

INPUT: Specify growth inhibition for S=C(NC1CCCCC1)SSSC(=S)NC1CCCCC1 and stop.
OUTPUT: -8.05

INPUT: Provide measured growth inhibition value, entry: CCC1=C(c2ccc(OC)cc2)CC[C@@]2(CCNC2=O)[C@@H]1C
OUTPUT: -5.45

INPUT: Provide growth inhibition value for the following compound: c1ccc2c(c1)Cc1cc3ccccc3cc1C2
OUTPUT: -29.5

INPUT: Item N#CCCC(C#N)(CCC#N)C(N)=O : provide growth inhibition
OUTPUT: -2.6

INPUT: Output measured growth inhibition for this item: O=c1c2ccccc2c(=O)c2c1c1c(=O)c3ccccc3c(=O)c1c1c(=O)c3ccccc3c(=O)c21
OUTPUT: 30.2

INPUT: Note growth inhibition for the compound shown: CCc1ccc2c(c1)C(O)(C#Cc1ccccc1)c1cc(CC)ccc1C2(O)C#Cc1ccccc1 (centres undefined)
OUTPUT: 45.5

INPUT: Consider the compound CCCCOC(=O)NC(=O)c1cn(CCCOC(=O)NCCCCCCNC(=O)OCCCn2cc(C(=O)NC(=O)OCCCC)c(=O)[nH]c2=O)c(=O)[nH]c1=O and give its recorded growth inhibition.
OUTPUT: -4.2

INPUT: Quote growth inhibition reported for CCN(CC)c1ccc(/C=C(\C)c2nc3ccc(C)cc3[nH]2)cc1 please.
OUTPUT: 8.1

INPUT: Please give measured growth inhibition of the following entry: CCCCCOC1OC(=O)C(Cl)=C1Cl (centres undefined)
OUTPUT: 63.2
